Taken from patent US20080070888A1.

- measurement.target: CaV3.2 (Homo sapiens, UniProt O95180)
- Construct: human Kir2.1 co-expressed
- Sequence (O95180 whole entry): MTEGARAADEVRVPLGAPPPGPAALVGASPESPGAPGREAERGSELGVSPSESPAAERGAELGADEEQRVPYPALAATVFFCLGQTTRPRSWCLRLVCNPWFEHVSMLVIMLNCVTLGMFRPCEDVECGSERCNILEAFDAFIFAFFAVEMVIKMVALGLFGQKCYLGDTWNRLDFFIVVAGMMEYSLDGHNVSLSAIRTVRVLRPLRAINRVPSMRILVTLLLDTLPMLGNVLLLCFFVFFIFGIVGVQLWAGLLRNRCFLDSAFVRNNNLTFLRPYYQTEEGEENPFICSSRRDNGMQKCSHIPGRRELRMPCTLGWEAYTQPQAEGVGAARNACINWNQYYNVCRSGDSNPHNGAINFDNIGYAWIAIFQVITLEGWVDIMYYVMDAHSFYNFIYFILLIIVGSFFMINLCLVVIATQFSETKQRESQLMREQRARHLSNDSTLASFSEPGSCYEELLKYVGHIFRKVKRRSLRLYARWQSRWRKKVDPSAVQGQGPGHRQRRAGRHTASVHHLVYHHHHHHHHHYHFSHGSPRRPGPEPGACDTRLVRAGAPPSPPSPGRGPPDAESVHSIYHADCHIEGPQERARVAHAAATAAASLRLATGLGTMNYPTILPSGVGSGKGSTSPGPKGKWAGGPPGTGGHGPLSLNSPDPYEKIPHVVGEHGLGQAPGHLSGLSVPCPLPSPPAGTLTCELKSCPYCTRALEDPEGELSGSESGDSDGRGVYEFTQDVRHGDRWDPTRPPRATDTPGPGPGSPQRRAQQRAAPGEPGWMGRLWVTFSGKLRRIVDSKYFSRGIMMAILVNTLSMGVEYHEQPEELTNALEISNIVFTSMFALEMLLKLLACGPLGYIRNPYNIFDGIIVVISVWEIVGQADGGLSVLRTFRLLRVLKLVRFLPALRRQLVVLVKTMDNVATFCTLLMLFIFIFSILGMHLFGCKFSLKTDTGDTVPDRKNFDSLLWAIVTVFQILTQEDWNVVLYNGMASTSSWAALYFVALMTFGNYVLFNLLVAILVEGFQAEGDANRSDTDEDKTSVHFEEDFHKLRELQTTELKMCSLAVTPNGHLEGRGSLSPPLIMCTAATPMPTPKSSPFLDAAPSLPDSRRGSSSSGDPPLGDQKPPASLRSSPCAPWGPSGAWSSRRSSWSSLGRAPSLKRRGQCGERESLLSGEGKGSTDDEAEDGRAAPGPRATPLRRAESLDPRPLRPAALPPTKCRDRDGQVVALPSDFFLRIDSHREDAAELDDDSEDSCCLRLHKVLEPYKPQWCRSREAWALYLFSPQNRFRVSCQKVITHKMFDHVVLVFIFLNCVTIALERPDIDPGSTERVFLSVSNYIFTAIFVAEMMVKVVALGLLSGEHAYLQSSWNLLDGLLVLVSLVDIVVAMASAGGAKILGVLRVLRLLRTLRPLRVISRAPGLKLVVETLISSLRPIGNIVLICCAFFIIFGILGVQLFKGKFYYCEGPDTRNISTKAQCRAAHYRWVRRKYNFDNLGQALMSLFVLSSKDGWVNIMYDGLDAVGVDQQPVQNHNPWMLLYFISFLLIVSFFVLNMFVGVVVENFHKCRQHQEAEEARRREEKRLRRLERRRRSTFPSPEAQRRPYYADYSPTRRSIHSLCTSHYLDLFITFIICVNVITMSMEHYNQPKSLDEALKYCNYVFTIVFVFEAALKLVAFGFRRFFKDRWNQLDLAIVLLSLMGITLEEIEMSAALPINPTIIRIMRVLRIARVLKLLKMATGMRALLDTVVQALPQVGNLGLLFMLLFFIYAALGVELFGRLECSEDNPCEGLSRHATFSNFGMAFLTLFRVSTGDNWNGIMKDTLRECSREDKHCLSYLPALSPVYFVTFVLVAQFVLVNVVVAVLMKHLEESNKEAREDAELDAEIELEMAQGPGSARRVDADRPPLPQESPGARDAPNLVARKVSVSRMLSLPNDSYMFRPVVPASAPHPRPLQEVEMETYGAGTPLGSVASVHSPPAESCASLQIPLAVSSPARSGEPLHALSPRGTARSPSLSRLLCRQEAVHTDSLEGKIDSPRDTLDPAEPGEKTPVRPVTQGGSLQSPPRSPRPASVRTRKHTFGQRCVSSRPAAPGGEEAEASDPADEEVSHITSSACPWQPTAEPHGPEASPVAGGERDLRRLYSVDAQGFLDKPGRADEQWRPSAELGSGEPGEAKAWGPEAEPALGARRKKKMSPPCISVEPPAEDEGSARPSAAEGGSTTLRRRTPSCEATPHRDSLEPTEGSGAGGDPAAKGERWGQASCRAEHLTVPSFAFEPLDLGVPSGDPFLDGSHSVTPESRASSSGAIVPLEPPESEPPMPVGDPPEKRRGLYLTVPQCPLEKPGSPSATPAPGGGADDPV
- test.description: CaV3.2 assay: functional evaluation of T-type calcium currents (IonWorks HT screen for hCaV3.2 / conventional whole cell patch clamp) in stably transfected HEK cells
Counter-ions that a name gives are not always drawn.
reported.metric: pIC50
The read-out pIC50 is expressed as -log10 of concentration in moles per litre.

CC(C)N1CC2(CCN(c3ccccn3)CC2)C1c1ccc(Cl)cc1 (stereo not drawn) [Example 3, formic acid salt]	5.30
CC(C)N1CC2(CCN(c3nc4cc(F)c(C(F)(F)F)cc4[nH]3)CC2)C1c1ccc(Cl)cc1 (stereo not drawn)	6.67

Shifting focus to the compound that follows.
Input CC(C)N1CC2(CCN(c3ncccn3)CC2)C1c1ccc(Cl)cc1 (stereo not drawn) [Example 4, formic acid salt] . Output pIC50: 5.06
